- target desc: thrombin (Homo sapiens, UniProt P00734;P00734 P00734:328-363,P00734:364-622)
- experiment description: inhibition; TT, plasma alone 16.3 s; about 0.5 uM in human plasma, 37 C
Reported activity values for a set of binders

Below are worked cases with known answers.
Short answer for RA 5'3' + 5'3' fiber (mixed) DNA 1: GGTTGGTGTGGTTGGTGGTTGGTGTGGTTGGTTTTCCCTTTAGGGAATGACCCTGAAGTTCATCTGCACCACCGAGGGAAATCCCTTTTTGGTTGGTGTGGTTGGTGGTTGGTGTGGTTGG DNA 2: GGTTGGTGTGGTTGGTGGTTGGTGTGGTTGGTTTTTCCCTAAAGGGATGACCCTGAAGTTCATCTGCACCACCGAAGGGATTTCCCTTTTGGTTGGTGTGGTTGGTGGTTGGTGTGGTTGG DNA 3: CGGTGGTGCAGATGAACTTCAGGGTCA : activity was > 60 s

Short answer for NU 3' + 5' fiber (mixed) DNA 1: TCCCTTTAGGGAATGACCCTGAAGTTCATCTGCACCACCGAGGGAAATCCCTTTTTCGCCTAGGTTGGGTAGGGTGGTGGCG DNA 2: CGCCTAGGTTGGGTAGGGTGGTGGCGTTTTTCCCTAAAGGGATGACCCTGAAGTTCATCTGCACCACCGAAGGGATTTCCCT DNA 3: CGGTGGTGCAGATGAACTTCAGGGTCA : activity was > 60 s

New cases:
Short answer for RA 5' + 5' fiber (mixed) DNA 1: GGTTGGTGTGGTTGGTGGTTGGTGTGGTTGGTTTTCCCTTTAGGGAATGACCCTGAAGTTCATCTGCACCACCGAGGGAAATCCCTT DNA 2: GGTTGGTGTGGTTGGTGGTTGGTGTGGTTGGTTTTTCCCTAAAGGGATGACCCTGAAGTTCATCTGCACCACCGAAGGGATTTCCCT DNA 3: CGGTGGTGCAGATGAACTTCAGGGTCA : activity was > 60 s

Short answer for RA 5' + 3' fiber (mixed) DNA 1: GGTTGGTGTGGTTGGTGGTTGGTGTGGTTGGTTTTCCCTTTAGGGAATGACCCTGAAGTTCATCTGCACCACCGAGGGAAATCCCTT DNA 2: TTCCCTAAAGGGATGACCCTGAAGTTCATCTGCACCACCGAAGGGATTTCCCTTTTGGTTGGTGTGGTTGGTGGTTGGTGTGGTTGG DNA 3: CGGTGGTGCAGATGAACTTCAGGGTCA : activity was > 60 s
